Just for reference, DBAASP is where these values come from.

# Tested on: Pseudomonas aeruginosa ATCC 27853
# Protocol Details: ≥ marks a high value that may be exact or a test limit, other limits are often not marked, values filed in µg/mL are converted to µM
Reported MIC is given for each of the following compounds.
Property: MIC (µM)

compound="CC(C)C[C@H](NC(=O)[C@H](CC(C)C)NC(=O)[C@H](Cc1ccccc1)NC(=O)[C@H](CC(C)C)NC(=O)[C@H](CC(C)C)NC(=O)[C@@H](N)CC(C)C)C(=O)N[C@@H](CCCCN)C(=O)N[C@@H](CCCCN)C(=O)N[C@@H](CCCN=C(N)N)C(=O)N[C@@H](CCCCN)C(=O)N[C@@H](CCCCN)C(=O)N[C@@H](CCCN=C(N)N)C(=O)N[C@@H](CCCCN)C(=O)N[C@@H](Cc1ccc(O)cc1)C(=O)O [LLLFLLKKRKKRKY]" target_desc="Pseudomonas aeruginosa ATCC 27853" property=MIC readout_unit=µM modifier== recorded_value=2.17
compound="CC[C@H](C)[C@@H]1NC(=O)CNC(=O)[C@H](CCCN=C(N)N)NC(=O)[C@H](C)NC(=O)[C@@H]2CSSC[C@H](NC1=O)C(=O)N[C@@H](Cc1ccc(O)cc1)C(=O)N[C@@H](CCCN=C(N)N)C(=O)N[C@@H](CCCN=C(N)N)C(=O)N[C@H](C(=O)N[C@@H](CCCN=C(N)N)C(=O)O)CSSC[C@H](NC(=O)[C@H](Cc1c[nH]c3ccccc13)NC(=O)[C@@H](N)CCCCN)C(=O)N[C@@H](Cc1ccccc1)C(=O)N[C@@H](CCCN=C(N)N)C(=O)N[C@@H](C(C)C)C(=O)N2 [KWCFRVCARGICYRRCR]" target_desc="Pseudomonas aeruginosa ATCC 27853" property=MIC readout_unit=µM modifier== recorded_value=0.459
compound="CC[C@H](C)[C@H](NC(=O)[C@H](CCCCN)NC(=O)[C@H](C)NC(=O)[C@H](CCCN=C(N)N)NC(=O)[C@H](CC(C)C)NC(=O)[C@H](CCCN=C(N)N)NC(=O)[C@@H](NC(=O)[C@H](CCCCN)NC(=O)[C@@H](NC(=O)[C@H](CCCCN)NC(=O)[C@H](C)NC(=O)[C@H](CCCN=C(N)N)NC(=O)[C@H](CC(C)C)NC(=O)[C@H](CCCCN)NC(=O)[C@H](Cc1ccccc1)NC(=O)CNC(=O)[C@@H](N)CCSC)[C@@H](C)CC)C(C)C)C(=O)N[C@@H](CCCCN)C(=O)N[C@@H](CC(C)C)C(=O)O [MGFKLRAKIKVRLRAKIKL]" target_desc="Pseudomonas aeruginosa ATCC 27853" property=MIC readout_unit=µM modifier=> recorded_value=28.2
compound="CC[C@H](C)[C@H](NC(=O)[C@H](CC(C)C)NC(=O)[C@@H]1CCCN1C(=O)[C@H](CC(C)C)NC(=O)[C@@H](N)Cc1ccccc1)C(=O)N[C@@H](CC(C)C)C(=O)N[C@@H](CCCN=C(N)N)C(=O)N[C@@H](CCCCN)C(=O)N[C@H](C(=O)N[C@H](C(=O)N[C@H](C(=O)N[C@@H](C)C(=O)N[C@@H](CC(C)C)C(N)=O)[C@@H](C)O)C(C)C)[C@@H](C)CC [FLPLILRKIVTAL]" target_desc="Pseudomonas aeruginosa ATCC 27853" property=MIC readout_unit=µM modifier=> recorded_value=401
compound="CC[C@H](C)[C@H](NC(=O)[C@H](CCCCN)NC(=O)[C@H](CCCCN)NC(=O)[C@H](Cc1ccccc1)NC(=O)[C@H](CC(C)C)NC(=O)[C@H](CCCCN)NC(=O)[C@@H](N)CCCCN)C(=O)N[C@@H](CC(C)C)C(=O)N[C@@H](CCCN=C(N)N)C(=O)N[C@@H](Cc1ccc(O)cc1)C(=O)N[C@@H](CC(C)C)C(N)=O [KKLFKKILRYL]" target_desc="Pseudomonas aeruginosa ATCC 27853" property=MIC readout_unit=µM modifier== recorded_value=11.7
